- Test system: HCT-116
- Test Protocol: Antiproliferative activity against human HCT-116 cells at 0.1 to 100 uM by MTT assay
- Type: functional, cell-based
- Condition Set: dose 0.1-100 µM, time 24-72 hrs, TDE = time-dependent effect
Measured Quantity: Activity

Below are worked cases with known answers.
- Smiles Input: "CCN(CC)/[N+]([O-])=N/OCOC(=O)CCCCOc1c(OC)cc(/C=C/C(=O)N2CCC=C(Cl)C2=O)cc1OC"
  Activity: "Tde"
- Smiles Input: "COc1cc(/C=C/C(=O)N2CCC=C(Cl)C2=O)cc(OC)c1OCCCCC(=O)OCO/N=[N+](\\[O-])N1CCOCC1"
  Activity: "Tde"
- Smiles Input: "COc1cc(/C=C/C(=O)N2CCC=CC2=O)cc(OC)c1OC"
  Activity: "Tde"
- Smiles Input: "COc1cc(/C=C/C(=O)NOC/N=[N+](\\[O-])N2CCOCC2)cc(OC)c1OCCCCC(=O)OCO/N=[N+](\\[O-])N1CCOCC1"
  Activity: "Tde"

Now let's try a different one.
For reference, reported Activity for CCN(CC)/[N+]([O-])=N/CONC(=O)/C=C/c1cc(OC)c(OCCCCC(=O)OCO/N=[N+](\[O-])N(CC)CC)c(OC)c1 stands at Tde

* * *

- Test Protocol: Selectivity index, ratio of IC50 for human CCD-841CoN cells to IC50 for human HCT-116 cells
- Format: toxicity
- Condition Set: CCD-841CoN cells and HCT-116 cells, read-out: Ratio IC50
Measured Quantity: selectivity ratio

The value of selectivity ratio measured for the compound CCN(CC)/[N+]([O-])=N/OCOC(=O)CCCCOc1c(OC)cc(/C=C/C(=O)N2CCC=C(Cl)C2=O)cc1OC turned out to be > 10

* * *

In this section we review reported IC50 values for a set of compounds.
- Test system: A549
- Test Protocol: Antiproliferative activity against human A549 cells incubated for 24 hrs by MTT assay
- Format: functional, cell-based
- Condition Set: A549, 24 h
Express it in µM; write the number only.

Sample answers from the record:
- Smiles Input: "COc1cc(/C=C/C(=O)NOC/N=[N+](\\[O-])N2CCOCC2)cc(OC)c1OCCCCC(=O)OCO/N=[N+](\\[O-])N1CCOCC1"
  Unit Info: "µM"
  Result: 18.4
- Smiles Input: "CCN(CC)/[N+]([O-])=N/CONC(=O)/C=C/c1cc(OC)c(OCCCCC(=O)OCO/N=[N+](\\[O-])N(CC)CC)c(OC)c1"
  Unit Info: "µM"
  Result: 5.7

The reported value for CCN(CC)/[N+]([O-])=N/OCOC(=O)CCCCOc1c(OC)cc(/C=C/C(=O)N2CCC=C(Cl)C2=O)cc1OC in terms of IC50 is 0.8

Lab book: IC50 of COc1cc(/C=C/C(=O)N2CCC=CC2=O)cc(OC)c1OC noted as 13.2

Reported IC50 of COc1cc(/C=C/C(=O)N2CCC=C(Cl)C2=O)cc(OC)c1OCCCCC(=O)OCO/N=[N+](\[O-])N1CCOCC1 : 1.1

# IC50 (compound: COc1cc(/C=C/C(=O)N2CCC=C(Cl)C2=O)cc(OC)c1OC ) is 10.2

* * *

- Test Protocol: Cytotoxicity against human CCD-841CoN cells incubated for 72 hrs by MTT assay
- Type: toxicity, cell-based
Measured Quantity: IC50 at 72 h (µM)
Please respond with the number in µM and leave the unit unwritten.

Looking up CCN(CC)/[N+]([O-])=N/OCOC(=O)CCCCOc1c(OC)cc(/C=C/C(=O)N2CCC=C(Cl)C2=O)cc1OC , I see its IC50 at 72 h listed as 6.1
